Would you mind telling me the reported Dose/organ of each entry?
Tested on: Rattus norvegicus
procedure.text: Organ distribution in rat kidney 30 minutes after intravenous injection
Assay type: ADME, organism-based
condition.context: in vivo, 0.5 h
Reply with the number, then its unit.

Requested read-out: Dose/organ. Entry: CC(C)N(CC[Se]CCN(C(C)C)C(C)C)C(C)C
6.19%

Requested read-out: Dose/organ. Entry: C[N+](C)(C)CC[Se]CC[N+](C)(C)C
6.01%

Requested read-out: Dose/organ. Entry: C1CN(CC[Se]CCN2CCOCC2)CCO1
4.03%

Requested read-out: Dose/organ. Entry: CN(C)CC[Se]CCN(C)C
5.6%

Requested read-out: Dose/organ. Entry: C1CCN(CC[Se]CCN2CCCCC2)CC1
9.21%

The values you see were collected from ChEMBL document CHEMBL1121543.
